molecular target: APOL1 G2 (Homo sapiens, UniProt O14791, DEL388-389); experiment: Rescue of HEK293 cell death caused by overexpression of APOL1 (CellTiter-Glo luminescence), HEK293/T-REx APOL1 G2/clone #2; conditions: reversal of cell death caused by overexpression of APOL1; geometric mean of at least 2 assay runs, † = single assay run (technical duplicate)
Sequence (O14791 with tags, fused parts or gaps DEL388-389): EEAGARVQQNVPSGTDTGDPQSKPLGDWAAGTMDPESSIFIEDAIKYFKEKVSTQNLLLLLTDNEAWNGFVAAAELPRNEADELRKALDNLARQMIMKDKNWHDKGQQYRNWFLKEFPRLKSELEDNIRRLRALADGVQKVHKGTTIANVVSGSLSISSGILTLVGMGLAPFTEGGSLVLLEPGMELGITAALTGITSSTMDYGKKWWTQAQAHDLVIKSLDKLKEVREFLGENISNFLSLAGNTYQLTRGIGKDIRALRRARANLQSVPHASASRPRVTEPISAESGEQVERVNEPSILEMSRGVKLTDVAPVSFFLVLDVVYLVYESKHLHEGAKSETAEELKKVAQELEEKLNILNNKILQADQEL
For each record, write down the corresponding pEC50.
Numbers only, as −log10 of the molar value.

Use these answered entries as a reference point.
{"columns": ["Compound", "Tested On", "Measured Result"],
 "data": [
  ["COC(CN1CCC[C@H](COc2ccc(S(C)(=O)=O)cc2)C1)c1cccc(Cl)c1 (single isomer, unassigned) [Compound 23]", "APOL1 G2 (Homo sapiens, UniProt O14791, DEL388-389)", 6.17],
  ["CC(C)(CO)S(=O)(=O)c1ccc(OC[C@@H]2CN(CCc3cc(Cl)cc(C#N)c3)CCN2)cc1", "APOL1 G2 (Homo sapiens, UniProt O14791, DEL388-389)", 6.80],
  ["CS(=O)(=O)c1ccc(OC[C@@H]2CN(CCc3cccc(Cl)c3)CCN2)cc1", "APOL1 G2 (Homo sapiens, UniProt O14791, DEL388-389)", 6.35]
]}

Field: next compound
Q. For C[C@@H]1CN(CCc2cccc(Cl)c2)C[C@H]1COc1ccc(S(=O)(=O)CCS(C)(=O)=O)cc1 , what is its reported pEC50?
A. 7.09

###

For each record, write down the corresponding log10(EC50).
biological target: APOL1 G2 (Homo sapiens, UniProt O14791, DEL388-389); assay: Rescue of HEK293 cell death caused by overexpression of APOL1 (CellTiter-Glo luminescence), HEK293/T-REx APOL1 G2/clone #2; settings: reversal of cell death caused by overexpression of APOL1; geometric mean of at least 2 assay runs, † = single assay run (technical duplicate)
Recall that a logarithmic scale is used here: each number is log10 of EC50 in nM.

Use these answered entries as a reference point.
{"columns": ["Molecule", "Tested On", "Readout", "Measured Result"],
 "data": [
  ["C[C@@H]1CN(CCc2cccc(C#N)c2)C[C@H]1COc1ccc(S(=O)(=O)C2CNC2)cc1", "APOL1 G2 (Homo sapiens, UniProt O14791, DEL388-389)", "log10(EC50)", 2.31],
  ["C[C@@H]1CN(CCc2cccc(C#N)c2)C[C@H]1COc1ccc(S(=O)(=O)CCCS(C)(=O)=O)cc1", "APOL1 G2 (Homo sapiens, UniProt O14791, DEL388-389)", "log10(EC50)", 2.10],
  ["C[C@@H]1CN(CCc2cc(F)cc(Cl)c2)C[C@H]1COc1ccc(S(C)(=O)=O)cc1", "APOL1 G2 (Homo sapiens, UniProt O14791, DEL388-389)", "log10(EC50)", 2.51],
  ["C[C@@]1(O)CN(CCc2cccc(Cl)c2)C[C@H]1COc1ccc(S(C)(=O)=O)cc1 (single isomer, unassigned) [Compound 207]", "APOL1 G2 (Homo sapiens, UniProt O14791, DEL388-389)", "log10(EC50)", 2.97],
  ["CS(=O)(=O)c1ccc(OCC2(O)CCCN(CCc3cccc(Cl)c3)C2)cc1 (centres unmarked) [Compound 4]", "APOL1 G2 (Homo sapiens, UniProt O14791, DEL388-389)", "log10(EC50)", 3.37],
  ["CN(c1ccc(OC[C@@H](O)CNCCc2cc(Cl)ccc2Cl)cc1)S(C)(=O)=O", "APOL1 G2 (Homo sapiens, UniProt O14791, DEL388-389)", "log10(EC50)", 3.16]
]}

Field: next molecule
Q. For C[C@@H]1CN(CCc2cccc(Cl)c2)C[C@H]1COc1ccc(N(C)S(C)(=O)=O)cc1 (single isomer, unassigned) , what is its reported log10(EC50)?
A. 1.32
